System: Mus musculus
protocol.summary: Plasma concentration in Swiss mouse at 20 mg/kg, po administered as single dose
Format: ADME, organism-based
Design: dose 20 mg/kg, route oral
measurement.setup: in vivo

{"molecular.string": "Cc1cc(Nc2ccc(C(F)(F)F)cc2)n2ncnc2n1", "unit.symbol": "µM", "concentration": 7.9}

* * *

Test system: Liver microsomes
measurement.setup: human, 1 µM
measurement.kind: CL (µL/min/mg)

{"molecular.string": "Cc1cc(Nc2ccc(C)c(F)c2)n2ncnc2n1", "assayed.system": "Liver microsomes", "recorded.result": 49}
{"molecular.string": "Cc1cc(Nc2cccc(Cl)c2)n2ncnc2n1", "assayed.system": "Liver microsomes", "recorded.result": 38}
{"molecular.string": "Cc1cc(Nc2ccc3ccccc3c2)n2ncnc2n1", "assayed.system": "Liver microsomes", "recorded.result": 96}
{"molecular.string": "Cc1cc(Nc2cccc(C(F)(F)F)c2)n2ncnc2n1", "assayed.system": "Liver microsomes", "recorded.result": 29}
{"molecular.string": "Cc1cc(Nc2ccc(C#N)c(C(F)(F)F)c2)n2ncnc2n1", "assayed.system": "Liver microsomes", "recorded.result": 6.2}
{"molecular.string": "Cc1cc(Nc2ccc(C(F)(F)F)cc2)n2ncnc2n1", "assayed.system": "Liver microsomes", "recorded.result": 7.5}
{"molecular.string": "Cc1cc(Nc2cccc(F)c2)n2ncnc2n1", "assayed.system": "Liver microsomes", "recorded.result": 18}

* * *

assayed.system: UniProt:Q54A96
Sequence (Q54A96 whole entry): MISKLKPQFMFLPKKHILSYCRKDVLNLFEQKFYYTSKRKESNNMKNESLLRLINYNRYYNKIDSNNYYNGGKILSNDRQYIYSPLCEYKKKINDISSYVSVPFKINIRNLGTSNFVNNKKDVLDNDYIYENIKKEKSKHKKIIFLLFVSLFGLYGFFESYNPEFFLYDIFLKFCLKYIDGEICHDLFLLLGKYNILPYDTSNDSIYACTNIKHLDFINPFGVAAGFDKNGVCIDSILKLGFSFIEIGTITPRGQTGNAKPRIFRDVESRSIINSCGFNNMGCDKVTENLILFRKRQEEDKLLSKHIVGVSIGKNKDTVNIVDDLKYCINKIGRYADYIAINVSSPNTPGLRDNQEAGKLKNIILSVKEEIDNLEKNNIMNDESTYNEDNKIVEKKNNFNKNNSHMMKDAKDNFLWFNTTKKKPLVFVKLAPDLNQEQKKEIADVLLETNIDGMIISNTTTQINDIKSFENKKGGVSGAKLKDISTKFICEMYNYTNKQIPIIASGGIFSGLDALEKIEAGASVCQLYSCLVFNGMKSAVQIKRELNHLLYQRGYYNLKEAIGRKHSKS
pIC50: −log10 of the molar value.
So basically: pIC50 at 5 or higher? That is 1. Lower than 5? That is 0.

{"molecular.string": "Cc1cc(Nc2ccc(Br)cc2)n2ncnc2n1", "class.assignment": 1}
{"molecular.string": "Cc1cc(Nc2c(F)c(F)c(F)c(F)c2F)n2ncnc2n1", "class.assignment": 0}
{"molecular.string": "Cc1cc(Nc2ccc(C#N)c(C(F)(F)F)c2)n2ncnc2n1", "class.assignment": 1}
{"molecular.string": "COc1ccc(Nc2cc(C)nc3ncnn23)cc1", "class.assignment": 1}
{"molecular.string": "Cc1cc(Nc2cccc(C(F)(F)F)c2)n2ncnc2n1", "class.assignment": 0}
{"molecular.string": "Cc1cc(Nc2cc(F)c(F)cc2F)n2ncnc2n1", "class.assignment": 0}
{"molecular.string": "Cc1cc(Nc2ccc(Cl)c(C(F)(F)F)c2)n2ncnc2n1", "class.assignment": 1}
{"molecular.string": "Cc1cc(Nc2ccc(Cc3ccccc3)cc2)n2ncnc2n1", "class.assignment": 1}
{"molecular.string": "Cc1ccc(Nc2cc(C)nc3ncnn23)cc1", "class.assignment": 1}
{"molecular.string": "Cc1cc(Nc2ccc(C(F)(F)F)c(F)c2)n2ncnc2n1", "class.assignment": 1}
{"molecular.string": "Cc1cc(Nc2ccc([N+](=O)[O-])cc2)n2ncnc2n1", "class.assignment": 1}
{"molecular.string": "Cc1cc(Nc2ccc(F)c(C)c2)n2ncnc2n1", "class.assignment": 1}
{"molecular.string": "Cc1cc(Nc2ccc(C)c(F)c2)n2ncnc2n1", "class.assignment": 1}
{"molecular.string": "Cc1cc(Nc2c(F)cccc2F)n2ncnc2n1", "class.assignment": 0}
{"molecular.string": "Cc1cc(Nc2ccc(OC(F)F)cc2)n2ncnc2n1", "class.assignment": 1}
{"molecular.string": "Cc1cc(Nc2ccc(F)c(F)c2F)n2ncnc2n1", "class.assignment": 0}
{"molecular.string": "Cc1cc(Nc2ccccc2C#N)n2ncnc2n1", "class.assignment": 0}
{"molecular.string": "Cc1cc(Nc2ccc(F)cc2)n2ncnc2n1", "class.assignment": 0}
{"molecular.string": "Cc1cccc(Nc2cc(C)nc3ncnn23)c1", "class.assignment": 1}
{"molecular.string": "Cc1cc(Nc2ccc(-c3ccccc3)cc2)n2ncnc2n1", "class.assignment": 1}
{"molecular.string": "Cc1cc(Nc2ccc(C)c(C)c2)n2ncnc2n1", "class.assignment": 1}
{"molecular.string": "Cc1cc(Nc2ccc(C)c(C(F)(F)F)c2)n2ncnc2n1", "class.assignment": 1}
{"molecular.string": "Cc1cc(Nc2ccc(OC(F)(F)F)cc2)n2ncnc2n1", "class.assignment": 1}
{"molecular.string": "Cc1cc(Nc2cccc(F)c2F)n2ncnc2n1", "class.assignment": 0}
